biological target: BlaC β-lactamase (Mycobacterium tuberculosis, UniProt P9WKD3); assay: biochemical
Sequence (P9WKD3 35-307): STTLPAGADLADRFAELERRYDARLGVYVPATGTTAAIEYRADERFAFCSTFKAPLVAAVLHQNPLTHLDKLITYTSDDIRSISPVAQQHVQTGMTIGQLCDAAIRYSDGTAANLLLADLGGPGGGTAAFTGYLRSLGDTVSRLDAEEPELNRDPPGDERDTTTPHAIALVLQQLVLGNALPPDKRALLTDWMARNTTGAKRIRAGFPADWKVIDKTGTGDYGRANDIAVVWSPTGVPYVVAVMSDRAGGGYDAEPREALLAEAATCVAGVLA
Endpoint Name: pKi
Hey, just a heads up that pKi is the negative log base 10 of the concentration in molar.

Recorded pKi (molecule C[C@@H](O)[C@H]1C(=O)N2C(C(=O)O)=C(S[C@@H]3CN[C@H](C(=O)N(C)C)C3)[C@H](C)[C@H]12 [meropenem] ): 5.96
